Every entry's value here was drawn from patent US5480971A.

System: human red blood cells (RBC's)
Assay: Hemolytic activity on human red blood cells
Type: cell-based
Conditions: 0.25 percent RBC suspension, one hour at 37° C.
Square brackets hold non-standard residues; d marks the D form. Peptide text beside a SMILES is read from it. * marks the point of attachment. X1 = C[N+](C)(C)[C@@H](Cc1ccccc1)C(=O)*; X2 = CC(C)C[C@@H](C(=O)*)[N+](C)(C)C; NMeF = CN[C@@H](Cc1ccccc1)C(=O)O; NMeI = CC[C@H](C)[C@H](NC)C(=O)O
Property label: % hemolysis at 350 μg/ml (%)
Answers are plain numbers, in %.

{"columns": ["Molecule", "Numeric readout"],
 "data": [
  ["CC[C@H](C)[C@@H](C(=O)N(C)[C@@H](Cc1ccccc1)C(=O)N(C)[C@@H](Cc1ccccc1)C(=O)N(C)[C@@H](Cc1ccccc1)C(=O)NC)N(C)C(=O)[C@H](Cc1ccccc1)N(C)C(=O)[C@H](CC(C)C)[N+](C)(C)C [PerM-LFIFFF, PerM-LeuPheIlePhePhePhe] (X2-[NMeF][NMeI][NMeF][NMeF][NMeF]-NHMe)", 12]
]}

Give measured % hemolysis at 350 μg/ml for every item shown.
1. CNC(=O)[C@H](Cc1ccccc1)N(C)C(=O)[C@H](Cc1ccccc1)N(C)C(=O)[C@H](Cc1ccccc1)N(C)C(=O)[C@H](Cc1ccccc1)N(C)C(=O)[C@H](Cc1ccccc1)N(C)C(=O)[C@H](CC(C)C)[N+](C)(C)C [PerM-LFFFFF, PerM-LeuPhePhePhePhePhe] (X2-[NMeF][NMeF][NMeF][NMeF][NMeF]-NHMe)
2. CC[C@H](C)[C@@H](C(=O)N(C)[C@@H](Cc1ccccc1)C(=O)N(C)[C@@H](Cc1ccccc1)C(=O)N(C)[C@@H](Cc1ccccc1)C(=O)NC)N(C)C(=O)[C@H](Cc1ccccc1)N(C)C(=O)[C@H](Cc1ccccc1)[N+](C)(C)C [PerM-FFIFFF, PerM-PhePheIlePhePhePhe] (X1-[NMeF][NMeI][NMeF][NMeF][NMeF]-NHMe)
3. CNC(=O)[C@H](Cc1ccccc1)N(C)C(=O)[C@H](Cc1ccccc1)N(C)C(=O)[C@H](Cc1ccccc1)N(C)C(=O)[C@H](Cc1ccccc1)N(C)C(=O)[C@H](Cc1ccccc1)N(C)C(=O)[C@H](Cc1ccccc1)[N+](C)(C)C [PerA-FFFFFF, PerM-PhePhePhePhePhePhe] (X1-[NMeF][NMeF][NMeF][NMeF][NMeF]-NHMe)

Result:
[10, 0, 16]

* * *

Could you please report measured S. sanguis IC50 for the items listed next?
Test system: Streptococcus sangus ATCC 10566
Test: Assays against S. sanguis (growth inhibition)
Format: cell-based, Streptococcus sanguis
Details: Table 6
Ends that are not written are not given here.
One number for each entry, in µg/mL.

{"columns": ["Substance", "S. sanguis IC50 / µg/mL"],
 "data": [
  ["PerM-LeuPhePhePhePheHis (LFFFFH; also: permethylated) [PerM-LFFFFH]", 22],
  ["PerM-LeuPhePhePheHisPhe (LFFFHF; also: permethylated) [PerM-LFFFHF]", 19],
  ["PerM-LeuPheIlePheHisPhe (LFIFHF; also: permethylated) [PerM-LFIFHF]", 13],
  ["PerM-PhePhePhePheHisPhe (FFFFHF; also: permethylated) [PerM-FFFFHF]", 19],
  ["PerM-LeuPheIlePhePheHis (LFIFFH; also: permethylated) [PerM-LFIFFH]", 19]
]}

Pending substance:
Task: Recall the recorded S. sanguis IC50 for PerM-PhePheIlePhePheHis (FFIFFH; also: permethylated) [PerM-FFIFFH] with Streptococcus sangus ATCC 10566 and state it.
Result: 18

* * *

Tested on: human red blood cells (RBC's)
Experiment: Hemolytic activity on human red blood cells
Type: cell-based
Details: 0.25 percent RBC suspension, one hour at 37° C.
Ends that are not written are not given here.
Property label: % hemolysis at 350 μg/ml (%)
Numbers only, in %.

Worked cases, answers included:
{"columns": ["Substance", "Target", "% hemolysis at 350 μg/ml / %"],
 "data": [
  ["PerM-PhePheIlePhePheHis (FFIFFH; also: permethylated) [PerM-FFIFFH]", "human red blood cells (RBC's)", 0],
  ["PerM-PhePhePhePheHisPhe (FFFFHF; also: permethylated) [PerM-FFFFHF]", "human red blood cells (RBC's)", 3],
  ["PerM-LeuPheIlePheHisPhe (LFIFHF; also: permethylated) [PerM-LFIFHF]", "human red blood cells (RBC's)", 7],
  ["PerM-LeuPhePhePhePheHis (LFFFFH; also: permethylated) [PerM-LFFFFH]", "human red blood cells (RBC's)", 3],
  ["PerM-LeuPhePhePheHisPhe (LFFFHF; also: permethylated) [PerM-LFFFHF]", "human red blood cells (RBC's)", 4]
]}

Task: # % hemolysis at 350 μg/ml lookup, item PerM-LeuPheIlePhePheHis (LFIFFH; also: permethylated) [PerM-LFIFFH]
Result: 1

* * *

System: Methicillin-resistant Staphylococcus aureus (MRSA) ATCC 33591
Experiment: Antimicrobial activity against MRSA (growth inhibition)
Format: cell-based
Ends that are not written are not given here.
Give measured MRSA IC50 for each item. Keep answers brief.
Give bare numbers, in µg/mL.

{"columns": ["Substance", "Target", "MRSA IC50 (µg/mL)"],
 "data": [
  ["PerM-LeuPheIlePheHisPhe (LFIFHF; also: permethylated) [PerM-LFIFHF]", "Methicillin-resistant Staphylococcus aureus (MRSA) ATCC 33591", 14],
  ["PerM-LeuPhePhePhePheHis (LFFFFH; also: permethylated) [PerM-LFFFFH]", "Methicillin-resistant Staphylococcus aureus (MRSA) ATCC 33591", 16],
  ["PerM-PhePheIlePhePheHis (FFIFFH; also: permethylated) [PerM-FFIFFH]", "Methicillin-resistant Staphylococcus aureus (MRSA) ATCC 33591", 19],
  ["PerM-LeuPhePhePheHisPhe (LFFFHF; also: permethylated) [PerM-LFFFHF]", "Methicillin-resistant Staphylococcus aureus (MRSA) ATCC 33591", 13],
  ["PerM-LeuPheIlePhePheHis (LFIFFH; also: permethylated) [PerM-LFIFFH]", "Methicillin-resistant Staphylococcus aureus (MRSA) ATCC 33591", 20]
]}

Read the next record carefully.
Task: # input substance: PerM-PhePhePhePheHisPhe (FFFFHF; also: permethylated) [PerM-FFFFHF] ; wanted: its MRSA IC50
Result: 18
